src = patent US20090130692A1

Biological target: sheep tryptase ST2 (Sheep)
Sequence (Q9XSM2 29-273): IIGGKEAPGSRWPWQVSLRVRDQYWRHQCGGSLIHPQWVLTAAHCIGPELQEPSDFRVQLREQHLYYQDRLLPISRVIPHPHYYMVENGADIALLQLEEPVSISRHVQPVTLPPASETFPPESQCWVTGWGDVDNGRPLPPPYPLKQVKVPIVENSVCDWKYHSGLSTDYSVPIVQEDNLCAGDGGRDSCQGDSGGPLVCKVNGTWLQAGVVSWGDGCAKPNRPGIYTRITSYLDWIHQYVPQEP
Experiment: enzyme inhibition, selectivity panel; apparent Ki (Kiapp)
Reported Ki values for the following binders.
Reply with just the number (in nM).

Ki reported for this binder KKVGVCPKILKKCRRDSDCPGACICRGNGYCG (modifications not checked) [MCoTI-KKV] : 100

Ki reported for this binder GVCPKILKKCRRDSDCLAGCVCGPNGFCGS (modifications not checked) [SE-MG-0] : 4000

Ki reported for this binder GVCPRILKKCRRDSDCPGACICRGNGYCG (modifications not checked) [MCoTI-R] : 1000
